# studyTarget: CDK7/Cyclin H/MNAT1 (Homo sapiens, UniProt P51946+P50613+P51948)
# procedureText: Inhibition of human His-tagged CDK7/cyclin H/MNAT1 expressed in baculovirus infected insect cells at 25 nM preincubated for 10 mins followed by substrate and ATP addition and measured after 60 mins by ADP-Glo kinase assay relative to control
# studyConditions: Insect cell, time 70.0 min
Attribute: inhibition
Field format: number, assumed %, no unit text.

These recorded examples may help you get a feel for the data.
lineNotation: CP(C)(=O)c1cccc2c(-c3nc(N[C@H]4CC[C@H](N)C4)nc4ccsc34)c[nH]c12
inhibition [%]: 59
--
lineNotation: CP(C)(=O)c1cccc2c(-c3nc(N[C@@H]4CNC[C@H]4O)nc4ccsc34)c[nH]c12
inhibition [%]: 17

Shifting focus to the molecule that follows.
input: Given the molecule CP(C)(=O)c1cccc2c(-c3nc(N[C@H]4CCNC4)nc4ccsc34)c[nH]c12 , what is its reported inhibition?
output: 23
